meta.source: patent US20210230570

molecular target: Factor X (FX), P00742
Sequence (P00742 whole entry, looked up): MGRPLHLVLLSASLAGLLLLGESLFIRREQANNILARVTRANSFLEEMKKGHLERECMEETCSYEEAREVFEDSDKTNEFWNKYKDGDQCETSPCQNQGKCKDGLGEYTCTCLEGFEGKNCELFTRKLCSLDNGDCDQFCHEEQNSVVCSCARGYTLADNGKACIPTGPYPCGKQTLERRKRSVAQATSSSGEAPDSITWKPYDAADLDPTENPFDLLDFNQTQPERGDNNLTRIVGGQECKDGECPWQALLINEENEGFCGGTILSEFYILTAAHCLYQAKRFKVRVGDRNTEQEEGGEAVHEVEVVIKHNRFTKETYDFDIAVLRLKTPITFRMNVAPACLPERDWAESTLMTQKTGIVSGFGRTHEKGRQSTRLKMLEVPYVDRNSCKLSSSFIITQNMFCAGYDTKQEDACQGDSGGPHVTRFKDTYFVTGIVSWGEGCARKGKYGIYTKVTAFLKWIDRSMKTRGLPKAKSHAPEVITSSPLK
OBSERVABLE: KM

Q) Supply measured KM of FIXa-K228N/I251S/R318Y/R338E/R403E/E410N (protein) chain 1: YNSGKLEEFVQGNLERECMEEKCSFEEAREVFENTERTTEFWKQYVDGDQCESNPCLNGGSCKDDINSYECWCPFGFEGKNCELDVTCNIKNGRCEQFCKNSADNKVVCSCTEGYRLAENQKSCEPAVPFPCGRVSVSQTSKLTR chain 2: VVGGEDAKPGQFPWQVVLNGKVDAFCGGSIVNEKWIVTAAHCVETGVNITVVAGEHNIEETEHTEQKRNVSRIIPHHNYNAAINKYNHDIALLELDEPLVLNSYVTPICIADKEYTNIFLKFGSGYVSGWGRVFHKGYSALVLQYLRVPLVDRATCLESTKFTIYNNMFCAGFHEGGRDSCQGDSGGPHVTEVEGTSFLTGIISWGEECAMKGKYGIYTKVSEYVNWIKNKTKLT in your reply.
A) 0.0364 µM
